- Tested on: NCI-H23 lung
- Assay Name: NCI-60 one-dose screen, 48 h (100 = growth as untreated, 0 = no growth, -100 = all killed)
- Condition Parameters: 10 µM unless noted
This is part of a sample that, as a whole, favours compounds with a hit. Of some 83,000 tested, about 20% had one in any assay.
// reported growth per item
State just the number; it will be interpreted in %.

Compound | Unit Text | growth
CC(C)COC(=O)NC(C)(C)C | % | 101
CN1CCN(Cc2ccc(NC(=O)c3cccc(C#Cc4cnc(N)c5ncccc45)c3F)cc2C(F)(F)F)CC1 | % | 61.4
NC(=S)N/N=C(/c1cccs1)C1CC1 | % | 101
CCNS(=O)(=O)c1ccc(C)cc1 | % | 100
CC1(C)C(N(O)C(=O)Nc2ccc(Cl)cc2)N(c2ccc(Cl)cc2)C(=O)N1CC(=O)N/N=C/C=C/c1ccc([N+](=O)[O-])o1 (configuration not stated) | % | 3.01
Nc1nc2ccc([C@@H]3Nc4ccc5[nH]ncc5c4[C@H]4[C@H]5CCC(C5)[C@H]43)cc2s1 | % | 23.2
CCCCCc1c(C)[nH]c(/C=C2\N=C(c3ccc[nH]3)C=C2CC)c1C | % | -81
O=C1C=CC(=O)N1CO | % | 124
Nc1nc(N)c2c(n1)NC(c1sc(Cl)nc1Cl)CC(c1ccccc1)=N2 (configuration not stated) | % | 76.4
Oc1ccc(Cl)cc1-c1cc(-c2ccccc2Cl)[nH]n1 | % | 47.8

Notebook: `COc1ccc2nc(C)cc(Nc3ccccc3O)c2c1` , growth read as 100

Notebook: `COc1ccccc1/C=N\NC(=S)Nc1ccc(F)cc1` , growth read as 72.5

Notebook: `O=C(/C=C/c1cc([N+](=O)[O-])ccc1Cl)c1ccccc1` , growth read as 87.6

Notebook: `C=CCn1c(SCC(=O)Nc2ccc(/C(C)=N\O)cc2)nnc1-c1cc(-c2ccc(Cl)cc2)nc2ccccc12` , growth read as 24.1

Notebook: `CC[C@H](Nc1nc(N)nc(C2CC2)c1C#N)c1nc2cccc(NCc3ccc(C(=O)NO)cc3)c2c(=O)n1-c1ccccc1` , growth read as -14.8

Notebook: O=C1OCC2=C1C(c1cccc(Br)c1)c1cc3c(cc1N2CCO)OCCO3 (configuration not stated) , growth read as 27.5

Notebook: N#CC1=C(N)Oc2nc[nH]c(=O)c2C1c1cccs1 (configuration not stated) , growth read as 110

Notebook: `COc1cc(/C=C/C(=O)c2ccc(NC(=O)CSc3nnc(-c4ccc(Cl)cc4)n3-c3ccccc3)cc2)cc(OC)c1OC` , growth read as 55.9

Notebook: `Cc1nn(-c2ccc(Cl)cc2)c(=O)n1CCN1CCOCC1` , growth read as 64.5

Notebook: `C=CC[C@]1(O)CC[C@H]2[C@@H]3CCc4cc(O)ccc4[C@H]3CC[C@@]21C` , growth read as 112

Notebook: Cc1ccccc1N1C(c2ccccc2)=NNC12C=CC(=O)c1c(O)cccc12 (configuration not stated) , growth read as 31.4

Notebook: Nc1nc(N)c2c(n1)NC(c1sc(Cl)nc1Cl)CC(c1ccc3c(c1)OCO3)=N2 (configuration not stated) , growth read as 39.9

====

- Test system: NCI-H226 lung
- Assay Name: NCI-60 one-dose screen, 48 h
- Condition Parameters: 10 µM unless noted
Compounds without any hit were thinned out: in the full panel of roughly 83,000, 20% have a hit. Activity calls are given as the source filed them. The calls were made as follows: active = growth percent below 10; inactive = the rest.
Parameter call: string, one of y (active), n (inactive)

IN: For this compound, state the assay outcome: `COc1ccc(OC)c(Nc2nc(-c3c(C)nc4sccn34)cs2)c1`
OUT: n

IN: For this compound, state the assay outcome: O=C(Nc1ccccc1)C(CCCCN1C(=O)c2ccccc2C1=O)N1C(=O)c2ccccc2C1=O (stereo not drawn)
OUT: n

IN: For this compound, state the assay outcome: `O=c1c2sc3ncc(Cl)cc3c2nnn1-c1cccc(Cl)c1`
OUT: n

IN: For this compound, state the assay outcome: `CC(C)(C)c1ccc(Cn2c(-c3nonc3N)nc3ccccc32)cc1`
OUT: n

IN: For this compound, state the assay outcome: COc1cccc(OCC(O)CN2CCN(c3ccccc3)CC2)c1 (stereo not drawn)
OUT: n

IN: For this compound, state the assay outcome: `O=C(c1ccccc1)N(CCCCl)C(=O)N(CCCCl)C(=O)c1ccccc1`
OUT: n

====

- Tested on: SF-268 CNS
- Assay Name: NCI-60 one-dose screen, 48 h
- Condition Parameters: 10 µM unless noted
This is part of a sample that, as a whole, favours compounds with a hit. Of some 83,000 tested, about 20% had one in any assay. Active and inactive are the calls of the source. The calls were made as follows: active = growth percent below 10; inactive = the rest.
Parameter call: string, one of yes for active, no for inactive

Some entries whose results are on file:
Compound | Category
CCOc1cccc(/C=N/NC(=O)c2ccc(Nc3ccnc(C(F)(F)F)c3)cc2)c1O | no
O=C(CN1CCN(c2ccccc2)CC1)N1CCN(c2nnc(-c3ccc(Cl)cc3)c(-c3ccc(Cl)cc3)n2)CC1 | no
Clc1ccccc1Nc1nnc(-c2ccncc2)s1 | no
O=C(/C=C/c1ccccc1)n1c(-c2ccccc2)nc2ccccc21 | no
CCN(CC)CCCC(C)Nc1cnc(C(=O)Nc2cc(C)cc3cccnc23)cn1 (stereo unspecified) | no

IN: For this compound, state the assay outcome: `[O-]/[N+](=C\c1ccccc1)CC1(O)CCCCC1`
OUT: no

====

- Tested on: CCRF-CEM leukemia
- Assay Name: NCI-60 one-dose screen, 48 h (100 = growth as untreated, 0 = no growth, -100 = all killed)
- Condition Parameters: 10 µM unless noted
This is part of a sample that, as a whole, favours compounds with a hit. Of some 83,000 tested, about 20% had one in any assay.
// reported growth per item
State just the number; it will be interpreted in %.

Molecule | Unit Text | growth
O=C(C=P(c1ccccc1)(c1ccccc1)c1ccccc1)CCl | % | -3.6
C/C(=C\C(=N\N=C(N)N)c1ccc(Cl)cc1)c1ccc(Cl)cc1 | % | -22.5
COc1cc(C)c2c(=O)c3c(oc2c1)C(=O)c1c(O)c(OC)cc(O)c1C3=O | % | 10.4

Notebook: COc1cc(C2CC(c3cccc(Nc4ccnc5cc(Cl)ccc45)c3)=NN2c2ccccc2)cc(OC)c1OC (stereo not given) , growth read as 57.1

====

- System: HCT-116 colon
- Assay Name: NCI-60 one-dose screen, 48 h (100 = growth as untreated, 0 = no growth, -100 = all killed)
- Condition Parameters: 10 µM unless noted
This is part of a sample that, as a whole, favours compounds with a hit. Of some 83,000 tested, about 20% had one in any assay.
// reported growth per item
State just the number; it will be interpreted in %.

Solved cases below.
Compound | Attribute Measured | Unit Text | Recorded Measurement
CC1(C)C(N(O)C(=O)Nc2ccc(Cl)cc2)N(c2ccc(Cl)cc2)C(=O)N1CC(=O)N/N=C/C=C/c1ccc([N+](=O)[O-])o1 (centres undefined) | growth | % | -98.1
COc1ccc2nc(NC(=O)/C(=C/c3cc(OC)c(OC)c(OC)c3)c3ccc(OC)c(OC)c3)sc2c1 | growth | % | 96.3

Notebook: `O=C(CS)OCC(COC(=O)CS)(COC(=O)CS)COC(=O)CS` , growth read as 79.6

Notebook: `COc1ccc(-n2nc(C(=O)NCC(=O)Nc3nc4cc(OC)ccc4s3)c3ccccc3c2=O)cc1` , growth read as 2.56

Notebook: Fc1[nH]nc2ccc([C@@H]3Nc4ccc5[nH]ncc5c4[C@H]4C5CCC(C5)[C@@H]34)cc12 (some centres undefined) , growth read as 21

Notebook: `Nc1ccc(C(OC(=O)c2cc3ccccc3c(Cc3c(O)c(C(=O)OC(c4ccc(N)cc4)(c4ccc(N)cc4)c4ccc(N)cc4)cc4ccccc34)c2O)(c2ccc(N)cc2)c2ccc(N)cc2)cc1` , growth read as 8.88

Notebook: COc1cc(C2CC(c3cccc(Nc4ccnc5cc(Cl)ccc45)c3)=NN2c2ccccc2)cc(OC)c1OC (centres undefined) , growth read as 64.8

Notebook: `N[C@@H](CO)C(=O)O` , growth read as 103

Notebook: COc1ccc(C2CC(c3cccc(Nc4ccnc5cc(Cl)ccc45)c3)=NN2c2ccccc2)cc1 (centres undefined) , growth read as 65.5

Notebook: `Cc1cc(N=Nc2ccc(-c3ccc(N=Nc4ccc(O)c(C(=O)O)c4)cc3)cc2)c(N)c(N=Nc2ccc(C(=O)O)cc2)c1N` , growth read as 65.5

Notebook: O=C(Oc1c(Cl)c(Cl)c(Cl)c(Cl)c1Cl)C1CCCN1C(=O)OCc1ccccc1 (centres undefined) , growth read as 15.9

====

- System: EKVX NSCLC
- Assay Name: NCI-60 one-dose screen, 48 h (100 = growth as untreated, 0 = no growth, -100 = all killed)
- Condition Parameters: 10 µM unless noted
This is part of a sample that, as a whole, favours compounds with a hit. Of some 83,000 tested, about 20% had one in any assay.
// reported growth per item
State just the number; it will be interpreted in %.

Solved cases below.
Compound | Unit Text | growth
CC1(C)CC[C@]2(C(=O)N3CCNCC3)CC[C@]3(C)C(=CC[C@@H]4[C@@]5(C)CCC(=O)C(C)(C)[C@@H]5CC[C@]43C)[C@@H]2C1 | % | 96.7
O=C1Nc2ccccc2/C1=C/c1c[nH]c2ccccc12 | % | 15.7
CC(C)=CCC[C@H](C)c1ccc(C)c2c1OCN(CCO)C2 | % | 97.2
CN1CCN(Cc2ccc(NC(=O)c3ccc(C#N)c(C#Cc4cnc(N)c5ncccc45)c3)cc2C(F)(F)F)CC1 | % | 96.6
COc1ccc(CCN2COc3c([C@@H](C)CCC=C(C)C)ccc(C)c3C2)cc1OC | % | 63.2
Cc1cc(O)c(C2=NN(c3ccc(S(N)(=O)=O)cc3)C(c3ccc(Cl)cc3)C2)c(C)c1Cl (stereo not given) | % | 49.7
O=c1[nH]c2ccccc2n2cc3cccnc3c12 | % | 86.4
CCCNC(=S)N/N=C(\C)c1ccccn1 | % | 12.1
CCN(CC)CCCCCCCNc1cc(OC)cc2c(C)ccnc12 | % | 86.7

Read the next record carefully.
Notebook: `O=c1cc(N2CCOCC2)oc2c(-c3ccc4c(c3)OCCO4)csc12` , growth read as 9.76

Origin of the recorded values: PubChem BioAssay (NCI)
